Target: Fibroblast growth factor 10 (Homo sapiens)
Experiment: FGF10 binders on small-molecule microarrays, primary screen, biochemical, small-molecule microarray, 635 nm fluorescence (AID 1102)
Conditions: FGF10 binding, fluorescence 635 nm, higher = more signal
recordedMetric: composite z-score
Numbers only.

CC(=O)OC[C@H]1O[C@H](CC=NO[C@H](C)c2cn([C@H](CO)Cc3ccccc3)nn2)C=C[C@@H]1OC(C)=O :: 0.945

Kindly give each listed record's composite z-score.
1. COc1cccc([C@H]2Oc3ccc(OC)cc3C(=NO[C@@H](C)c3cn([C@H](CO)Cc4ccccc4)nn3)[C@@H]2O)c1
2. CO[C@@H]1COC(=O)[C@@H](C)COC(=O)[C@@H](C)NC(=O)CC=C[C@@H]1C

[0.167, 1.22]

// returns reported composite z-score for input `C[C@@H]1CC[C@H]2C(=O)O[C@@H](COc3ccc(C(C)(C)C)cc3)CN2[C@@H]1c1ccc(Br)cc1`
-0.828
